Assay: Primary qHTS for delayed death inhibitors of the malarial parasite plastid, 96 hour incubation
Settings: P. falciparum luciferase reporter growth; series mostly up to 28.7 µM
The whole screen tested about 320,000 compounds, of which about 22,000 (6.9%) were called active. Not shown: some 27% with an inconclusive outcome. The call rests on the fitted dose curve; in most records, active means well fitted inhibition curve with a large enough effect; inconclusive means small, poorly fitted or top-dose-only effect, or another doubt; inactive means no such curve, though single readings can be large or run the other way. Only a selection was taken, and actives are over-represented in it overall.
Returns: one label drawn from class 1 for active, class 0 for inactive

>  <Compound>
C#CCOCCOCCOCCNc1nc(N2CCN(C(=O)[C@H](CCCCN)n3cc([C@@H](N)C(C)CC)nn3)CC2)nc(N2CCN(C(=O)[C@H](Cc3ccc(O)cc3)n3cc([C@@H](N)C(C)CC)nn3)CC2)n1 (some centres undefined)

>  <Group>
class 0

$$$$
>  <Compound>
O=C(COC(=O)/C=C/c1ccc2c(c1)OCO2)NC1CCS(=O)(=O)C1 (centres undefined)

>  <Group>
class 0

$$$$
>  <Compound>
CCOC(=O)C1(C(F)(F)F)N=C(N(C)C)OC(N(C)C)=N1

>  <Group>
class 1

$$$$
>  <Compound>
CCOC(=O)CCNC(=O)N1CCCC(C(=O)c2ccccc2SC)C1 (centres undefined)

>  <Group>
class 0

$$$$
>  <Compound>
Cc1nnc(NC(=O)/C=C/c2ccco2)s1

>  <Group>
class 0

$$$$
>  <Compound>
O=C(CN1C(=O)c2cccnc2Oc2ccc(Cl)cc21)Nc1ccc(F)cc1

>  <Group>
class 0

$$$$
>  <Compound>
CCc1nnc(NC(=O)/C=C/c2ccc(C)o2)s1

>  <Group>
class 1

$$$$
>  <Compound>
COc1ccc(C(=O)N2CCCC(C(=O)c3ccccc3OC)C2)cc1OC (centres undefined)

>  <Group>
class 0

$$$$

Q: Dear all, I need the recorded test outcome for Cc1cc(C(=O)NCCc2ccc(Cl)cc2)c(C)o1 , thank you.
Result: class 0

---

Assay: Primary qHTS for delayed death inhibitors of the malarial parasite plastid, 96 hour incubation
Conditions: P. falciparum luciferase reporter growth; series mostly up to 28.7 µM
Screen size: about 320,000 compounds; about 22,000 (6.9%) were called active. About 27% were inconclusive and are not listed. The call rests on the fitted dose curve; in most records, active means well fitted inhibition curve with a large enough effect; inconclusive means small, poorly fitted or top-dose-only effect, or another doubt; inactive means no such curve, though single readings can be large or run the other way. The full list was thinned out, with actives kept by preference.
Returns: one label drawn from TRUE = active, FALSE = inactive

>  <Molecule>
Cc1ccc(-c2nn(-c3ccccc3)cc2C(=O)NCCCN2CCCC2=O)cc1

>  <Group>
FALSE

$$$$
>  <Molecule>
CC(=O)Nc1cccc(C(=O)OCN2C(=O)c3ccccc3C2=O)c1

>  <Group>
FALSE

$$$$

Please examine the following record next.
Q: Dear all, I need the recorded test outcome for Cc1cccc(NC(=O)Nc2ccc3c(c2)OCO3)n1 , thank you.
Result: FALSE

---

Test: Primary qHTS for delayed death inhibitors of the malarial parasite plastid, 96 hour incubation
Conditions: P. falciparum luciferase reporter growth; series mostly up to 28.7 µM
Out of some 320,000 compounds screened, about 22,000 (6.9%) were called active. Roughly 27% stayed inconclusive and do not appear here. The call rests on the fitted dose curve; in most records, active means well fitted inhibition curve with a large enough effect; inconclusive means small, poorly fitted or top-dose-only effect, or another doubt; inactive means no such curve, though single readings can be large or run the other way. This is one part of a sample in which actives are shown more often than they occur. Where a SMILES comes first, the peptide text is derived from it. [ ]: non-standard residue; d: D form. The star is where a group is joined. PhAc = O=C(Cc1ccccc1)*
Returns: one label drawn from yes (active), no (inactive)

Examples with answers:
>  <Compound>
O=C(COC(=O)c1ccc[nH]c1=O)Nc1ccc2c(c1)OC(F)(F)O2

>  <Group>
no

$$$$
>  <Compound>
Cc1ccc(C(=O)OCC(=O)NC(=O)Cc2ccccc2)c(O)c1

>  <Group>
no

$$$$
>  <Compound>
CN(CC(=O)NNC(=O)CNC(=O)c1ccccc1Cl)S(=O)(=O)c1ccc(Cl)cc1

>  <Group>
no

$$$$
>  <Compound>
COc1ccc(-n2cc(CN(C)Cc3n[nH]c(=O)[nH]3)c(-c3cccc(F)c3)n2)cc1

>  <Group>
no

$$$$
>  <Compound>
CCCn1nc(Oc2nc(NC(C)C)nc(N(C)C)n2)ccc1=O

>  <Group>
no

$$$$
>  <Compound>
O=C(COc1ccccc1Cl)N1CCCCCCC1

>  <Group>
no

$$$$
>  <Compound>
Cc1ccc(Cl)c(OCC(=O)NN2CCN(C)CC2)c1

>  <Group>
no

$$$$
>  <Compound>
COc1ccc(NC2CCCN(C(=O)c3ccncc3)C2)cc1 (configuration not stated)

>  <Group>
no

$$$$

Q: Dear all, I need the recorded test outcome for CC1CC(C)CN(C(=O)C2CC(=O)N(c3ccc(F)cc3)C2)C1 (configuration not stated) , thank you.
Result: no

Q: Also check Cc1ccc(-n2cc(CN(C)Cc3nccn3C)c(-c3cccc(C)c3)n2)cc1
Result: yes

Q: Also check COc1ccc(NC(=O)c2cccc(Cl)c2)c[n+]1[O-]
Result: no

Q: Also check CC(C)C[C@@H](NC(=O)[C@H]1CCCN1C(=O)Cc1ccccc1)C(N)=O (PhAc-[dP]-[dL]-NH2)
Result: no

---

Assay: Primary qHTS for delayed death inhibitors of the malarial parasite plastid, 96 hour incubation
Details: P. falciparum luciferase reporter growth; series mostly up to 28.7 µM
From the text: The goal of this screen is to discover new antimalarial compounds that act by inhibiting the development of the apicoplast in the malarial parasite Plasmodium falciparum. […] We have developed a cell-based assay that measures parasite growth based on the expression of an integrated copy of a firefly luciferase reporter. […] Growth inhibition is detected by a decrease in luciferase activity. […]
The whole screen tested about 320,000 compounds, of which about 22,000 (6.9%) were called active. About 27% were inconclusive and are not listed. The call rests on the fitted dose curve; in most records, active means well fitted inhibition curve with a large enough effect; inconclusive means small, poorly fitted or top-dose-only effect, or another doubt; inactive means no such curve, though single readings can be large or run the other way. What follows is part of a selection rich in actives, with near analogues and random picks from the rest.
Returns: one label drawn from active, inactive

Examples with answers:
>  <Molecule>
O=C(Nc1nc2ccc([N+](=O)[O-])cc2s1)c1ccc(S(=O)(=O)N2CCCc3ccccc32)cc1

>  <Group>
inactive

$$$$
>  <Molecule>
O=C1/C(=C/c2coc3ccc(O)cc3c2=O)SC(=S)N1c1ccccc1

>  <Group>
inactive

$$$$
>  <Molecule>
O=C(CCCCCn1c(=S)[nH]c2ccsc2c1=O)NC1CCCCC1

>  <Group>
active

$$$$
>  <Molecule>
C=CCn1c(SCCOc2ccc(OC)cc2)nnc1C(NC(=O)c1ccc(OC)cc1)C(C)C (stereo not given)

>  <Group>
active

$$$$
>  <Molecule>
Cn1c(=O)c2c(nc(N3CCCCCC3)n2CC(O)COc2ccc(Cl)cc2)n(C)c1=O (stereo not given)

>  <Group>
inactive

$$$$
>  <Molecule>
COc1ccccc1C(=O)NC(=S)Nc1ccccc1N1CCCCC1

>  <Group>
inactive

$$$$

Q: Dear all, I need the recorded test outcome for COc1ccc(-c2nn(-c3ccccc3)cc2/C=C2/SC(=S)N(CCCC(=O)O)C2=O)c(C)c1 , thank you.
Result: inactive

Q: Also check CC(NC(=S)Nc1ccc(S(N)(=O)=O)cc1)c1ccc2c(c1)OCO2 (stereo not given)
Result: active

Q: Also check CCc1ccc(NC(=O)NC(C)c2ccc3c(c2)OCO3)cc1 (stereo not given)
Result: inactive

Q: Also check CCN(CC)CCCNC(=O)c1cc2c(=O)[nH]c3ccc(C)cc3c2s1
Result: inactive

---

Assay: Primary qHTS for delayed death inhibitors of the malarial parasite plastid, 96 hour incubation
Settings: P. falciparum luciferase reporter growth; series mostly up to 28.7 µM
The campaign covered roughly 320,000 compounds. About 22,000 (6.9%) were called active. Another 27% or so got no clear call; they are omitted. Calls follow the shape of the dose curve; as a rule, active = well fitted inhibition curve with a large enough effect; inconclusive = small, poorly fitted or top-dose-only effect, or another doubt; inactive = no such curve, though single readings can be large or run the other way. The entries come from a sample that favours actives as a whole.
Returns: one label drawn from 1 (yes) = active, 0 (no) = inactive

>  <Compound>
Cc1cccc(OCC(=O)NC(=S)Nc2ccccc2N2CCOCC2)c1

>  <Group>
0 (no)

$$$$
>  <Compound>
CCOc1cc(C(C(=O)NCC2CCCO2)N(C(=O)Cn2nnc3ccccc32)c2cccc(OC)c2)ccc1O (stereo unspecified)

>  <Group>
0 (no)

$$$$
>  <Compound>
CCOCCCN(C)C1CCN(C(=O)c2oc3ccccc3c2NC(=O)COc2cccc(C)c2)CC1

>  <Group>
1 (yes)

$$$$
>  <Compound>
Cc1nc2ccccc2c(=O)n1NC(=O)c1ccccc1

>  <Group>
0 (no)

$$$$

Q: Dear all, I need the recorded test outcome for C=CCn1c(Oc2ccc(C(=O)OC)cc2)nc2c1c(=O)n(C)c(=O)n2C , thank you.
Result: 1 (yes)

Q: Also check Cc1cc(N2CCN(Cc3ccc4c(c3)OCO4)CC2)n2ncnc2n1
Result: 0 (no)

Q: Also check NC(=O)C1CCN(C(=O)/C(=C/c2ccco2)NC(=O)c2ccccc2)CC1
Result: 0 (no)

Q: Also check CC(C)Oc1cccc(C(=O)C2CCCN(C3CCOCC3)C2)c1 (stereo unspecified)
Result: 0 (no)

Q: Also check O=C(NCCc1c[nH]c2ccccc12)c1cccc(Br)c1
Result: 0 (no)

Q: Also check Cc1c(NC(=O)C(C)Oc2cccc(Cl)c2)c(=O)n(-c2ccccc2)n1C (stereo unspecified)
Result: 0 (no)

Q: Also check CC1(C(=O)NCCc2c[nH]c3ccccc23)C=CC2(CCCCC2)N1C(=O)c1ccccc1 (stereo unspecified)
Result: 1 (yes)

Q: Also check CC(OC(=O)C1CC(=O)N(Cc2ccccc2)C1)C(=O)Nc1ccccc1[N+](=O)[O-] (stereo unspecified)
Result: 0 (no)

Q: Also check Cn1c(=O)c2c(nc(NCc3ccccc3)n2CC(N)=O)n(C)c1=O
Result: 0 (no)

Q: Also check Cc1cc(C)c2c(-n3cccc3)c(NC(=O)OCc3ccccc3)sc2n1
Result: 1 (yes)

Q: Also check CN(C)S(=O)(=O)c1cccc(C(=O)OCC(=O)N2CCCC2=O)c1
Result: 0 (no)

Q: Also check CCCCNC(=O)CN1C(=O)NC(Cc2ccccc2)(Cc2ccccc2)C1=O
Result: 0 (no)

Q: Also check CC(=O)NC(CC(=O)Nc1nc(-c2ccccc2)c(C(C)=O)s1)c1ccccc1 (stereo unspecified)
Result: 0 (no)

Q: Also check Cc1cccc(C)c1NC(=O)COC(=O)c1ccccc1O
Result: 0 (no)

Q: Also check Cc1ccc(-n2c(SCC(=O)NCCC3=CCCCC3)nc3n[nH]c(C)c3c2=N)cc1Cl
Result: 0 (no)

Q: Also check O=C(COC(=O)c1cccs1)NCc1cccs1
Result: 0 (no)

Q: Also check Cc1ccc(C(=O)NCCNC(=O)c2cnccn2)cc1
Result: 0 (no)

Q: Also check CC1CC(C)CN(C(=O)COC(=O)c2ccc3ncsc3c2)C1 (stereo unspecified)
Result: 0 (no)

Q: Also check O=C(COC(=O)c1ccc(Cl)nc1)NCc1cccs1
Result: 1 (yes)

Q: Also check CCN(CC)Cc1c(C(=O)N/N=C/c2cccc(OCc3ccc(F)cc3)c2)nnn1-c1nonc1N
Result: 0 (no)
